- Tested on: Staphylococcus aureus
- assay.explanation: Antibacterial activity against Staphylococcus aureus by broth dilution method
- Format: functional

>  <compound>
NCC[C@H](O)C(=O)N[C@@H]1C[C@H](N)[C@@H](O[C@H]2O[C@H](CN)[C@@H](O)[C@H](O)[C@H]2O)[C@H](O)[C@H]1O[C@H]1O[C@H](CO)[C@@H](O)[C@H](N)[C@H]1O [AMIKACIN]

>  <endpoint.unit>
µg/mL

>  <relation.qualifier>
=

>  <MIC>
100

$$$$
>  <compound>
CO[C@H]1/C=C/O[C@@]2(C)Oc3c(C)c(O)c4c(O)c(c(/C=N/N5CCN(C)CC5)c(O)c4c3C2=O)NC(=O)/C(C)=C\C=C\[C@H](C)[C@H](O)[C@@H](C)[C@@H](O)[C@@H](C)[C@H](OC(C)=O)[C@@H]1C [RIFAMPIN]

>  <endpoint.unit>
µg/mL

>  <relation.qualifier>
=

>  <MIC>
0.002

$$$$
>  <compound>
NC[C@H]1O[C@H](O[C@H]2[C@H](O)[C@@H](O[C@H]3O[C@H](CO)[C@@H](O)[C@H](N)[C@H]3O)[C@H](N)C[C@@H]2N)[C@H](O)[C@@H](O)[C@@H]1O [KANAMYCIN]

>  <endpoint.unit>
µg/mL

>  <relation.qualifier>
=

>  <MIC>
12.5

$$$$
>  <compound>
CC(=O)N[C@@H]1[C@@H](O)[C@H](O)[C@@H](CSC(=S)N(C)C)O[C@H]1SC(=S)N(C)C

>  <endpoint.unit>
µg/mL

>  <relation.qualifier>
>

>  <MIC>
100

$$$$
>  <compound>
CN(C)C(=S)[S-].[Na+] [SODIUM DIMETHYLCARBAMODITHIOATE]

>  <endpoint.unit>
µg/mL

>  <relation.qualifier>
>

>  <MIC>
100

$$$$

* * *

- Test system: Mycobacterium avium
- assay.explanation: Antibacterial activity against Mycobacterium avium SmO by broth dilution method
- Type: functional
quantity.measured: log10(MIC) (log10 of the value in µg/mL)

>  <given.smiles>
CC[C@@H](CO)NCCN[C@@H](CC)CO

>  <assay.target>
Mycobacterium avium

>  <quantity.measured>
log10(MIC)

>  <value.measured>
0.19

$$$$
>  <given.smiles>
NCC[C@H](O)C(=O)N[C@@H]1C[C@H](N)[C@@H](O[C@H]2O[C@H](CN)[C@@H](O)[C@H](O)[C@H]2O)[C@H](O)[C@H]1O[C@H]1O[C@H](CO)[C@@H](O)[C@H](N)[C@H]1O

>  <assay.target>
Mycobacterium avium

>  <quantity.measured>
log10(MIC)

>  <value.measured>
0.19

$$$$
>  <given.smiles>
NC[C@H]1O[C@H](O[C@H]2[C@H](O)[C@@H](O[C@H]3O[C@H](CO)[C@@H](O)[C@H](N)[C@H]3O)[C@H](N)C[C@@H]2N)[C@H](O)[C@@H](O)[C@@H]1O

>  <assay.target>
Mycobacterium avium

>  <quantity.measured>
log10(MIC)

>  <value.measured>
0.19

$$$$
>  <given.smiles>
CO[C@H]1/C=C/O[C@@]2(C)Oc3c(C)c(O)c4c(O)c(c(/C=N/N5CCN(C)CC5)c(O)c4c3C2=O)NC(=O)/C(C)=C\C=C\[C@H](C)[C@H](O)[C@@H](C)[C@@H](O)[C@@H](C)[C@H](OC(C)=O)[C@@H]1C

>  <assay.target>
Mycobacterium avium

>  <quantity.measured>
log10(MIC)

>  <value.measured>
-2.40

$$$$
>  <given.smiles>
NNC(=O)c1ccncc1

>  <assay.target>
Mycobacterium avium

>  <quantity.measured>
log10(MIC)

>  <value.measured>
0.50

$$$$
>  <given.smiles>
CN[C@@H]1[C@H](O[C@H]2[C@H](O[C@H]3[C@H](O)[C@@H](O)[C@H](N=C(N)N)[C@@H](O)[C@@H]3N=C(N)N)O[C@@H](C)[C@]2(O)C=O)O[C@@H](CO)[C@H](O)[C@H]1O

>  <assay.target>
Mycobacterium avium

>  <quantity.measured>
log10(MIC)

>  <value.measured>
-0.41

$$$$
>  <given.smiles>
Nc1ccc(C(=O)O)c(O)c1

>  <assay.target>
Mycobacterium avium

>  <quantity.measured>
log10(MIC)

>  <value.measured>
2.00

$$$$
